Provide the recorded growth for the entries that follow.
System: OVCAR-3 ovarian
Assay: NCI-60 one-dose screen, 48 h (100 = growth as untreated, 0 = no growth, -100 = all killed)
Conditions: 10 µM unless noted
This is part of a sample that, as a whole, favours compounds with a hit. Of some 83,000 tested, about 20% had one in any assay.
Numbers only, in %.

Use the examples below as a reference point.
- COMPOUND: "COc1cc(/C=C/C(=O)C(C(=O)/C=C/c2ccc(OC(=O)CCNC34CC5CC(CC(C5)C3)C4)c(OC)c2)C(=O)CCNC23CC4CC(CC(C4)C2)C3)ccc1OC(=O)CCNC12CC3CC(CC(C3)C1)C2 (stereo not drawn)"
  growth (%): 14.9
- COMPOUND: "CCN(CC)c1ccc(C(=C2C=CC(=[N+](CC)Cc3cccc(S(=O)(=O)O)c3)C=C2)c2ccc(N(CC)Cc3cccc(S(=O)(=O)O)c3)cc2)cc1"
  growth (%): 14.2

**Q:** # lookup: growth of Nc1ccccc1C#Cc1ccccc1C#Cc1ccc(OCCCCCCOc2ccc(C#Cc3ccccc3C#Cc3ccccc3N)cc2)cc1
**A:** 109

###

System: A498 renal
Assay: NCI-60 one-dose screen, 48 h (100 = growth as untreated, 0 = no growth, -100 = all killed)
Conditions: 10 µM unless noted
This is part of a sample that, as a whole, favours compounds with a hit. Of some 83,000 tested, about 20% had one in any assay.
Provide the recorded growth for the entries that follow.
One number for each entry, in %.

Reference set (4 entries):
- COMPOUND: "CCOc1cc(/C=C/C(=O)C(C(=O)/C=C/c2ccc(OC(=O)CNc3nc4ccccc4[nH]3)c(OCC)c2)C(=O)CNc2nc3ccccc3[nH]2)ccc1OC(=O)CNc1nc2ccccc2[nH]1"
  growth (%): -9.48
- COMPOUND: "COc1ccc(C2=NN(C(N)=S)C(c3ccc4c(c3)OCO4)C2)cc1 (stereo not drawn)"
  growth (%): 49.2
- COMPOUND: "CN(C)CCCN=c1cc2c(=O)n(CCCN(C)C)c(=O)c3c(NCCCN(C)C)cc4c(O)n(CCCN(C)C)c(=O)c1c4c3-2"
  growth (%): -64.8
- COMPOUND: "CC1C(=O)NC2=Nc3ccccc3C(=O)NN21 (stereo not drawn)"
  growth (%): 116

Give one value of growth per listed compound.
1. O=CN1N=C(c2ccc(Nc3ccnc4cc(Cl)ccc34)cc2)CC1c1ccc(Cl)cc1 (stereo not drawn)
2. COc1cc(C2CC(C3C(=O)N(C)C(=O)N(C)C3=O)=NN2c2cc(Cl)cc(Cl)c2)cc(OC)c1OC (stereo not drawn)

**A:**
1: 34.6; 2: 88.5

Dear colleague, could you send me growth for each of the items below? Thanks.
1. CC[C@@H](C)/C=C(C)/C=C/C(=O)c1c(O)c(-c2ccc(O)cc2)cn(OC2CC(=O)CCC(C)OC(=O)CC2O)c1=O (stereo partly drawn)
2. CCOC(=O)c1cc2oc(/C=C/c3cc(=O)c4cc(Cl)ccc4o3)cc2[nH]1

**A:**
28.7
115

###

Tested on: NCI/ADR-RES ovarian
Test: NCI-60 one-dose screen, 48 h
Settings: 10 µM unless noted
The panel holds about 83,000 compounds, 20% with a hit somewhere; the sample as a whole holds those more often. The source made the active and inactive calls. The calls were made as follows: active = growth percent below 10; inactive = the rest.
Returns: one label drawn from label 1 = active, label 0 = inactive

Field: example entries. Status: answers known.
- COMPOUND: "CCCCCc1c(C)[nH]c(/C=C2\\N=C(c3ccc[nH]3)C=C2OCc2ccccc2)c1C"
  CLASSIFICATION: "label 1"
- COMPOUND: "O=C(CNC(=O)c1cccc2ccccc12)Nc1ccccc1Oc1ccc(O)cc1"
  CLASSIFICATION: "label 0"
- COMPOUND: "N#CC(C#N)C(C#N)C#N"
  CLASSIFICATION: "label 0"

**Q:** I'd appreciate the recorded outcome for N#CSCC1CC(O)(c2ccccc2)C(c2ccccc2)C(c2ccc(Cl)cc2)O1 (stereo not given) from this test.
**A:** label 1

**Q:** Here is the next compound: COc1cc(/C=C\C(C)=N\Nc2ccccc2)ccc1O
**A:** label 0
